Hi there, I'd appreciate the recorded EC50 for every entry that follows.
Target: human liver GK (Homo sapiens, UniProt P35557)
Construct: GST (glutathione S-transferase) (N)
Sequence (P35557 1-466 isoform P35557-2): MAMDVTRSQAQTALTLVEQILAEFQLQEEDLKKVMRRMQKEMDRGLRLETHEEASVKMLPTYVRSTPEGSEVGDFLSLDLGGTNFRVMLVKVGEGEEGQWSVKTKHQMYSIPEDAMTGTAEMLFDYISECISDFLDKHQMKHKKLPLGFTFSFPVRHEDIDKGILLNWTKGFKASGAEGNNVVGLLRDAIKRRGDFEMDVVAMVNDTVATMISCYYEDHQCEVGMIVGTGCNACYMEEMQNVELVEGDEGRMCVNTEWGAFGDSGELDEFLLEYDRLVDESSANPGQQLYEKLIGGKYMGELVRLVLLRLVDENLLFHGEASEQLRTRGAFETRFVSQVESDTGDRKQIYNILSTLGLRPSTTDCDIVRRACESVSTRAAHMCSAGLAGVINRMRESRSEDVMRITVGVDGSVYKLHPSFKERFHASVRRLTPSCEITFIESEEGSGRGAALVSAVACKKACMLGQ
Experiment: GK activation test
Conditions: test compound concentration needed to activate 50% of maximum activation ability; 4 mM 14C-labeled glucose, 2 mM ATP, room temperature, 20 minutes

Assay human liver GK (Homo sapiens, UniProt P35557), sample Cc1ccc(/C(=C\[C@H]2CCC(=O)N2)c2ccc(Cl)c(=O)[nH]2)cc1C(F)(F)F , EC50 read: 500 to 3000 nM

Assay human liver GK (Homo sapiens, UniProt P35557), sample CCc1ccc(C(C[C@H]2CCC(=O)N2)c2ccc(C3CC3)c(=O)[nH]2)cc1 (single isomer, unassigned) [Example 4-303] , EC50 read: 3000 to 10000 nM

Assay human liver GK (Homo sapiens, UniProt P35557), sample CC(C)(C)c1ccc(/C(=C\[C@H]2CCC(=O)N2)c2ccc(-c3ccccc3)c(=O)[nH]2)cc1 , EC50 read: 10 to 500 nM

Assay human liver GK (Homo sapiens, UniProt P35557), sample CCN1CC(Sc2ccc(/C(=C\C3CCCC3)c3ccc(C)c(=O)[nH]3)cc2)C1 , EC50 read: 500 to 3000 nM

Assay human liver GK (Homo sapiens, UniProt P35557), sample NS(=O)(=O)c1ccc(/C(=C\[C@H]2CCC(=O)N2)c2ccc(C3CC3)c(=O)[nH]2)cc1 , EC50 read: 10 to 500 nM

Assay human liver GK (Homo sapiens, UniProt P35557), sample CCN(CC)CCCCOc1ccc(/C(=C\[C@H]2CCC(=O)N2)c2ccc(C3CC3)c(=O)[nH]2)cc1Cl , EC50 read: 10 to 500 nM

Assay human liver GK (Homo sapiens, UniProt P35557), sample CC(C)(C)c1ccc(/C(=C\COc2ccccc2)c2ccc(Cl)c(=O)[nH]2)cc1 , EC50 read: 500 to 3000 nM

###

Target: human liver GK (Homo sapiens, UniProt P35557)
Construct: GST (glutathione S-transferase) (N)
Assay: GK activation test
Settings: test compound concentration needed to activate 50% of maximum activation ability; 4 mM 14C-labeled glucose, 2 mM ATP, room temperature, 20 minutes
pEC50: −log10 of the molar value.
ASSAY_READOUT: pEC50

Assay human liver GK (Homo sapiens, UniProt P35557), sample COCCCCc1ccc(/C(=C\[C@H]2CCC(=O)N2)c2ccc(Cl)c(=O)[nH]2)cc1 [Example 4-73] , pEC50 read: 5.52 to 6.30

Assay human liver GK (Homo sapiens, UniProt P35557), sample CNC(=O)c1ccc(/C(=C\[C@H]2CCC(=O)N2)c2ccc(Cl)c(=O)[nH]2)cc1 [Example 4-159] , pEC50 read: 5.00 to 5.52

Assay human liver GK (Homo sapiens, UniProt P35557), sample CC(C)(C)c1ccc(/C(=C\[C@H]2CCC(=O)N2)c2ccc(CCC3CCCCC3)c(=O)[nH]2)cc1 [Example 4-195] , pEC50 read: 6.30 to 8.00

Assay human liver GK (Homo sapiens, UniProt P35557), sample O=C1CC[C@H](/C=C(\c2ccc(CO)cc2)c2ccc(Cl)c(=O)[nH]2)N1 [Example 4-277] , pEC50 read: 5.00 to 5.52

Assay human liver GK (Homo sapiens, UniProt P35557), sample CC(C)(C)c1ccc(/C(=C\CN2CCCCCC2=O)c2ccc(Cl)c(=O)[nH]2)cc1 [Example 6-6] , pEC50 read: 5.52 to 6.30

Assay human liver GK (Homo sapiens, UniProt P35557), sample CC(C)(C)c1ccc(/C(=C\[C@H]2CCC(=O)N2)c2ccc(C3CCCC3)c(=O)[nH]2)cc1 [Example 4-194] , pEC50 read: 6.30 to 8.00

Assay human liver GK (Homo sapiens, UniProt P35557), sample O=C1CC[C@H](/C=C(\c2ccncc2)c2ccc(C3CC3)c(=O)[nH]2)N1 [Example 4-144] , pEC50 read: 5.00 to 5.52

Assay human liver GK (Homo sapiens, UniProt P35557), sample CCOc1ccc(C(C[C@H]2CCC(=O)N2)c2ccc(Cl)c(=O)[nH]2)cc1F (stereo partly drawn) [Example 4-241] , pEC50 read: 5.00 to 5.52

Assay human liver GK (Homo sapiens, UniProt P35557), sample CSc1ccc(/C(=C\[C@H]2CCC(=O)N2)c2ccc(C3CC3)c(=O)[nH]2)cc1 [Example 4-1] , pEC50 read: 6.30 to 8.00

Assay human liver GK (Homo sapiens, UniProt P35557), sample O=C1CC[C@H](CC(c2ccc(OC(F)F)c(Cl)c2)c2ccc(C3CC3)c(=O)[nH]2)N1 (single isomer, unassigned) [Example 4-357] , pEC50 read: 5.00 to 5.52

Assay human liver GK (Homo sapiens, UniProt P35557), sample COc1ccc(/C(=C\C2CCOCC2)c2ccc(C3CC3)c(=O)[nH]2)cc1 [Example 1-51] , pEC50 read: 5.52 to 6.30

Assay human liver GK (Homo sapiens, UniProt P35557), sample CC(C)(C)c1ccc(/C(=C\C(=O)N2CCCC2)c2ccc(Cl)c(=O)[nH]2)cc1 [Example 6-15] , pEC50 read: 5.00 to 5.52

Assay human liver GK (Homo sapiens, UniProt P35557), sample CC(C)c1ccc([C@@H](C[C@H]2CCC(=O)N2)c2ccc(C3CC3)c(=O)[nH]2)cc1 [Example 4-80] , pEC50 read: 6.30 to 8.00

Assay human liver GK (Homo sapiens, UniProt P35557), sample O=C1CC[C@H](/C=C(\c2ccc(OCc3ccccc3)cc2)c2ccc(Cl)c(=O)[nH]2)N1 [Example 4-154] , pEC50 read: 5.52 to 6.30

Assay human liver GK (Homo sapiens, UniProt P35557), sample CCCOc1ccc(/C(=C/[C@H]2CCC(=O)N2)c2ccc(C(C)(C)C)cc2)[nH]c1=O [Example 4-167] , pEC50 read: 5.52 to 6.30

Assay human liver GK (Homo sapiens, UniProt P35557), sample O=C1CC[C@H](CC(c2ccc(O)c(Cl)c2)c2ccc(C3CC3)c(=O)[nH]2)N1 (single isomer, unassigned) [Example 4-251] , pEC50 read: 5.00 to 5.52

Assay human liver GK (Homo sapiens, UniProt P35557), sample CC(C)(C)c1ccc(/C(=C\[C@H]2CCC(=O)N2)c2ccc(CCCc3ccccc3)c(=O)[nH]2)cc1 [Example 4-197] , pEC50 read: 5.52 to 6.30

Assay human liver GK (Homo sapiens, UniProt P35557), sample Cc1ccc(/C(=C\[C@H]2CCC(=O)N2)c2ccc(C3CC3)c(=O)[nH]2)cc1C [Example 4-115] , pEC50 read: 6.30 to 8.00

Assay human liver GK (Homo sapiens, UniProt P35557), sample CCOc1ccc(/C(=C\[C@H]2CCC(=O)N2)c2ccc(C3CC3)c(=O)[nH]2)c(Cl)c1 [Example 4-286] , pEC50 read: 6.30 to 8.00

Assay human liver GK (Homo sapiens, UniProt P35557), sample Cc1ccc(C(C[C@H]2CCC(=O)N2)c2ccc(Cl)c(=O)[nH]2)cc1 (single isomer, unassigned) [Example 4-318] , pEC50 read: 5.00 to 5.52

Assay human liver GK (Homo sapiens, UniProt P35557), sample O=C1CC[C@H](/C=C(\c2cccc(OCCCO)c2)c2ccc(C3CC3)c(=O)[nH]2)N1 [Example 4-8] , pEC50 read: 5.52 to 6.30

Assay human liver GK (Homo sapiens, UniProt P35557), sample Cc1ccc(C(CC2CCC(=O)CC2)c2ccc(S(C)(=O)=O)cc2)[nH]c1=O (stereo not drawn) [Example 2-21] , pEC50 read: 5.00 to 5.52

Assay human liver GK (Homo sapiens, UniProt P35557), sample Cc1cc(C(C[C@H]2CCC(=O)N2)c2ccc(C3CC3)c(=O)[nH]2)ccc1F (single isomer, unassigned) [Example 4-223] , pEC50 read: 5.52 to 6.30

Assay human liver GK (Homo sapiens, UniProt P35557), sample CCN(CC)CCCOc1ccc(/C(=C\[C@H]2CCC(=O)C2)c2ccc(C3CC3)c(=O)[nH]2)cc1Cl [Example 1-79] , pEC50 read: 6.30 to 8.00

Assay human liver GK (Homo sapiens, UniProt P35557), sample CC(C)(C)c1ccc(/C(=C\CN2CCCS2(=O)=O)c2ccc(Cl)c(=O)[nH]2)cc1 [Example 6-7] , pEC50 read: 5.52 to 6.30

Assay human liver GK (Homo sapiens, UniProt P35557), sample O=C1CC[C@H](/C=C(\c2ccc(F)c(C(F)(F)F)c2)c2ccc(C3CC3)c(=O)[nH]2)N1 [Example 4-117] , pEC50 read: 5.52 to 6.30

Assay human liver GK (Homo sapiens, UniProt P35557), sample CCN(CC)CCCC(=O)c1ccc(/C(=C\C2CCCC2)c2ccc(C(F)(F)F)c(=O)[nH]2)cc1 [Example 1-42] , pEC50 read: 5.52 to 6.30

Assay human liver GK (Homo sapiens, UniProt P35557), sample O=c1[nH]c(/C(=C/[C@H]2CC[C@H](O)CC2)c2ccc(SC3CC3)cc2)ccc1C(F)(F)F [Example 1-90] , pEC50 read: 6.30 to 8.00

Assay human liver GK (Homo sapiens, UniProt P35557), sample CCN(CC)CCCOc1ccc(/C(=C\[C@H]2CCC(=O)C2)c2ccc(C3CC3)c(=O)[nH]2)cc1 [Example 1-66] , pEC50 read: 5.52 to 6.30

Assay human liver GK (Homo sapiens, UniProt P35557), sample CCN(CC)CCCCOc1ccc(/C(=C\[C@H]2CCC(=O)C2)c2ccc(C3CC3)c(=O)[nH]2)cc1Cl [Example 1-80] , pEC50 read: 6.30 to 8.00
